Please go through the items and note down their normalized growth.
test.method.notes: chemical genetic growth profiling, strain panel (AID 1159580);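 note: tested at 20 µM; growth read once vehicle control cultures reached saturation at 30 °C; 1 = growth at the plate median or of vehicle wells; lower values mean less growth of the strain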
conditions.used: S. cerevisiae deletion strains, growth OD, locus YJR043C, strain POL32, hits give low values
Among all 5,500 compounds or so, about 2,000 (36%) were called active. Not shown: some 18% with an inconclusive outcome. The list shows a part of the results.
One number for each entry.

Please report normalized growth for every entry that follows.
1. C=C(C)C1CNC(C(=O)O)C1CC(=O)O (configuration not stated)
2. CC1=C(OS(=O)(=O)c2cc(C)c(Cl)cc2Cl)C(=O)CC1
3. COc1cc2c(cc1OC)C1C(=O)c3ccc4c(c3OC1CO2)CCC(C)(C)O4 (configuration not stated)

[A]
1. 1.02
2. 0.991
3. 1.01

Each of the following entries comes with a recorded value; kindly state normalized growth for each.
1. COc1cc2c(cc1OC)[C@@H]1C(=O)c3ccc4c(c3O[C@@H]1CO2)C=CC(C)(C)O4
2. CCS(=O)CCSP(=O)(OC)OC (configuration not stated)
3. CCOC(=O)c1cnc2cc(C)nn2c1C
4. O=C(O)C1(O)C[C@@H](O)C(O)[C@H](O)C1 (some centres not stated)
5. CCC(=O)Nc1cc(F)ccc1C

[A]
[0.987, 1.02, 1.01, 1.01, 0.985]

Taken from PubChem BioAssay AID1159580.
